# assay_protocol: Determination of PTE in mouse serum and brain tissue and pharmacokinetic analysis
# Assay type: in vivo
# condition_info: mouse, brain/serum, ip, 50 mg/kg, mice, 50 mg/kg ip; read-out: brain-to-serum Cmax ratio
measured_metric: Kp
Form: value (number only, do not type unit).

Request: Please look up its Kp: COc1cc(/C=C/c2ccc(O)cc2)cc(OC)c1 [PTE]
Response: 6

###

# assay_protocol: Determination of PTE in mouse serum and brain tissue and pharmacokinetic analysis
# Format: in vivo
# condition_info: mouse, brain; mice, 50 mg/kg ip, 120 min, mean ± SEM; read-out: Concentration of PTE in brain tissue
measured_metric: concentration at 120 min (ng/g)
Just the number please, in ng/g, no unit attached.

Request: Please look up its concentration at 120 min: `COc1cc(/C=C/c2ccc(O)cc2)cc(OC)c1`
Response: 820

###

# assay_protocol: Determination of PTE in mouse serum and brain tissue and pharmacokinetic analysis
# Assay type: in vivo
# condition_info: mouse, serum; mice, 50 mg/kg ip, 240 min, mean ± SEM; read-out: Concentration of PTE in serum
measured_metric: concentration at 240 min (ng/mL)
Just the number please, in ng/mL, no unit attached.

Request: Please look up its concentration at 240 min: COc1cc(/C=C/c2ccc(O)cc2)cc(OC)c1 [PTE]
Response: 100

###

# assay_protocol: Determination of PTE in mouse serum and brain tissue and pharmacokinetic analysis
# Format: in vivo
# condition_info: mouse, serum; mice, 50 mg/kg ip, 60 min, mean ± SEM; read-out: Concentration of PTE in serum
measured_metric: concentration at 60 min (µg/mL)
Just the number please, in µg/mL, no unit attached.

Request: Please look up its concentration at 60 min: COc1cc(/C=C/c2ccc(O)cc2)cc(OC)c1 [PTE]
Response: 0.55

###

# assay_protocol: Determination of PTE in mouse serum and brain tissue and pharmacokinetic analysis
# Format: in vivo
# condition_info: mouse; serum, mice, 50 mg/kg ip
measured_metric: Cmax (µg/mL)
Just the number please, in µg/mL, no unit attached.

Request: Please look up its Cmax: COc1cc(/C=C/c2ccc(O)cc2)cc(OC)c1 [PTE]
Response: 2.19

###

# assay_protocol: Determination of PTE in mouse serum and brain tissue and pharmacokinetic analysis
# Type: in vivo
# condition_info: mouse, brain; mice, 50 mg/kg ip, 15 min, mean ± SEM; read-out: Concentration of PTE in brain tissue
measured_metric: concentration at 15 min

Request: Please look up its concentration at 15 min: COc1cc(/C=C/c2ccc(O)cc2)cc(OC)c1 [PTE]
Response: 13100 ng/g

###

# assay_protocol: Determination of PTE in mouse serum and brain tissue and pharmacokinetic analysis
# Assay type: in vivo
# condition_info: mouse, brain/serum, ip, 50 mg/kg, mice, 50 mg/kg ip; read-out: brain-to-serum AUC ratio
measured_metric: Kp
Form: value (number only, do not type unit).

Request: Please look up its Kp: COc1cc(/C=C/c2ccc(O)cc2)cc(OC)c1 [PTE]
Response: 5.15

###

# assay_protocol: Determination of PTE in mouse serum and brain tissue and pharmacokinetic analysis
# Type: in vivo
# condition_info: mouse, brain; mice, 50 mg/kg ip, 240 min, mean ± SEM; read-out: Concentration of PTE in brain tissue
measured_metric: concentration at 240 min (ng/g)
Just the number please, in ng/g, no unit attached.

Request: Please look up its concentration at 240 min: `COc1cc(/C=C/c2ccc(O)cc2)cc(OC)c1`
Response: 180

###

# assay_protocol: Determination of PTE in mouse serum and brain tissue and pharmacokinetic analysis
# Format: in vivo
# condition_info: mouse; brain, mice, 50 mg/kg ip
measured_metric: Cmax (ng/g)
Just the number please, in ng/g, no unit attached.

Request: Please look up its Cmax: COc1cc(/C=C/c2ccc(O)cc2)cc(OC)c1 [PTE]
Response: 13100

###

# assay_protocol: Determination of PTE in mouse serum and brain tissue and pharmacokinetic analysis
# Type: in vivo
# condition_info: mouse; serum, mice, 50 mg/kg ip; read-out: AUC0–24
# Protocol: In order to isolate PTE from biological samples, brains were homogenized in distilled water (1:4, w/v) with a tissue homogenizer TH220 (Omni International, Inc., Warrenton, VA, USA). […] The limit of quantification of the analytical method was 5 ng/ml (or ng/g tissue). […] Serum and total brain concentrations of PTE were determined in groups consisted of 8 animals. Pharmacokinetic parameters were calculated using non-compartmental analysis in Phoenix WinNonlin v. […]
measured_metric: AUC(0-t) (µg·h/mL)
Just the number please, in µg·h/mL, no unit attached.

Request: Please look up its AUC(0-t): COc1cc(/C=C/c2ccc(O)cc2)cc(OC)c1 [PTE]
Response: 2.26

###

# assay_protocol: Determination of PTE in mouse serum and brain tissue and pharmacokinetic analysis
# Assay type: in vivo
# condition_info: mouse, brain; mice, 50 mg/kg ip, 60 min, mean ± SEM; read-out: Concentration of PTE in brain tissue
measured_metric: concentration at 60 min (ng/g)
Just the number please, in ng/g, no unit attached.

Request: Please look up its concentration at 60 min: `COc1cc(/C=C/c2ccc(O)cc2)cc(OC)c1`
Response: 3500

###

# assay_protocol: Determination of PTE in mouse serum and brain tissue and pharmacokinetic analysis
# Type: in vivo
# condition_info: mouse, serum; mice, 50 mg/kg ip, 30 min, mean ± SEM; read-out: Concentration of PTE in serum
measured_metric: concentration at 30 min

Request: Please look up its concentration at 30 min: COc1cc(/C=C/c2ccc(O)cc2)cc(OC)c1 [PTE]
Response: 1080 ng/mL

###

# assay_protocol: Determination of PTE in mouse serum and brain tissue and pharmacokinetic analysis
# Format: in vivo
# condition_info: mouse; brain, mice, 50 mg/kg ip; read-out: t0.5 λz (terminal half-life) (converted)
measured_metric: half-life (h)
Just the number please, in h, no unit attached.

Request: Please look up its half-life: `COc1cc(/C=C/c2ccc(O)cc2)cc(OC)c1`
Response: 1.82

###

# assay_protocol: Determination of PTE in mouse serum and brain tissue and pharmacokinetic analysis
# Format: in vivo
# condition_info: mouse, serum; mice, 50 mg/kg ip, 15 min, mean ± SEM; read-out: Concentration of PTE in serum
measured_metric: concentration at 15 min (ng/mL)
Just the number please, in ng/mL, no unit attached.

Request: Please look up its concentration at 15 min: `COc1cc(/C=C/c2ccc(O)cc2)cc(OC)c1`
Response: 1760

###

# assay_protocol: Determination of PTE in mouse serum and brain tissue and pharmacokinetic analysis
# Type: in vivo
# condition_info: mouse; serum, mice, 50 mg/kg ip; read-out: λz (terminal elimination rate constant) (converted)
measured_metric: k el (s⁻¹)
Just the number please, in s⁻¹, no unit attached.

Request: Please look up its k el: COc1cc(/C=C/c2ccc(O)cc2)cc(OC)c1 [PTE]
Response: 7.22e-05

###

# assay_protocol: Determination of PTE in mouse serum and brain tissue and pharmacokinetic analysis
# Type: in vivo
# condition_info: mouse; brain, mice, 50 mg/kg ip; read-out: λz (terminal elimination rate constant) (converted)
measured_metric: k el (s⁻¹)
Just the number please, in s⁻¹, no unit attached.

Request: Please look up its k el: COc1cc(/C=C/c2ccc(O)cc2)cc(OC)c1 [PTE]
Response: 0.000106

###

# assay_protocol: Determination of PTE in mouse serum and brain tissue and pharmacokinetic analysis
# Format: in vivo
# condition_info: mouse, serum; mice, 50 mg/kg ip, 120 min, mean ± SEM; read-out: Concentration of PTE in serum
measured_metric: concentration at 120 min (ng/mL)
Just the number please, in ng/mL, no unit attached.

Request: Please look up its concentration at 120 min: `COc1cc(/C=C/c2ccc(O)cc2)cc(OC)c1`
Response: 210
